Each item that follows carries a reported boiling point.
property.label: boiling point

compound	observed.measurement
CCOC(=O)C(C)C(C)=O (stereo not drawn)	187 °C
CC1=C(C)C(=O)OC1=O	223 °C
CCOC(Cl)CCl (stereo not drawn)	145 °C

---

compound	boiling point / °C
Cc1ccccn1	129
CC1=CCCC=C1	108
Cc1cccc2ccccc12	245
CC(C)CS	88.5
CC(=O)C1C(=O)C=C(C)OC1=O (stereo unspecified)	270
Fc1cccc(F)c1	82.6

---

cpd.smiles	melting point / °C
O=[n+]1[n-]c(-n2ccnc2)nc2ccc(Cl)cc21	182
CCCCCC(C)C	-109
NC1=C(Cl)C(=O)c2ccccc2C1=O	199
N#Cc1ccc(N)cc1	84
NC(=O)c1ccccc1	129

Entry source: the OPERA property sets (Mansouri et al. 2018)
